tgt: T1, GST-MUPP1 PDZ domain 7 (Homo sapiens (Human)), O75970
T1 chain: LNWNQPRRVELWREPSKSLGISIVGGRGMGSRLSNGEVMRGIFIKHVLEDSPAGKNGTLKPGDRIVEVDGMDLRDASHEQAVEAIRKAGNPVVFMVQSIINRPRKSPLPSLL
assay_comment: G' assay; also: key of the grades not given here
measurement_type: Classification (A450 class)

{"binder": "STDNLVRPFMDTLASHQLYI (modifications not checked) [presenilin-2]", "observed_measurement": 2}
{"binder": "VHDAESSDEDGYDWGPATDL (modifications not checked) [zona occludens 3 (ZO-3) PL peptide]", "observed_measurement": 1}
{"binder": "TALRIKKTLAKMVESQDVKI (modifications not checked) [bone morphogenetic protein receptor]", "observed_measurement": 1}

Each recorded value in this set is attributed to patent US20050282743A1.
